Measured values drawn from PubChem BioAssay (NCI) for this set.

- Test system: SK-MEL-5 melanoma
- assayName: NCI-60 one-dose screen, 48 h (100 = growth as untreated, 0 = no growth, -100 = all killed)
- testParameters: 10 µM unless noted
About 83,000 compounds went through this panel and 20% of them were active in at least one assay; those are over-represented in the sample as a whole.
// map growth onto a label; ranges interval 1 (below -40%), interval 2 (-40% to below 30%), interval 3 (30% or more)

{"columns": ["compound", "targetEntity", "answerLabel"],
 "data": [
  ["Cc1cc(=O)oc2cc(OCC(O)CNN3C(=O)c4cccc5c(N6CCN(C)CC6)ccc(c45)C3=O)ccc12 (stereo unspecified)", "SK-MEL-5 melanoma", "interval 3"],
  ["COc1cc(C2CC(c3ccc(S(=O)(=O)NCCNc4nc(N(C)C)nc(N5CCOCC5)n4)cc3)=Nc3c(N)nc(N)nc3N2)cc(OC)c1OC (stereo unspecified)", "SK-MEL-5 melanoma", "interval 3"],
  ["COc1cc(CNC(=O)C[C@H](C)CCC=C(C)C)ccc1OCc1cn(-c2ccccc2Cl)nn1", "SK-MEL-5 melanoma", "interval 2"],
  ["CN(C)CCCNC(=S)Nc1ccc(/C=C/c2ccc(Cl)cc2)cc1", "SK-MEL-5 melanoma", "interval 1"],
  ["O=C(N/N=C/c1ccc(Br)o1)c1[nH]c2ccc(Br)cc2c1-c1ccccc1", "SK-MEL-5 melanoma", "interval 1"],
  ["NS(=O)(=O)c1ccc(Nc2nc(SCC(=O)c3ccc(F)cc3)nc3ccccc23)cc1", "SK-MEL-5 melanoma", "interval 2"],
  ["COc1cc(C2CC(c3ccc(Cl)cc3)=Nc3c(N)nc(N)nc3N2)ccc1Oc1nc(Nc2ccc(F)cc2)nc(N(C)C)n1 (stereo unspecified)", "SK-MEL-5 melanoma", "interval 2"],
  ["COc1cc(CNC(=O)[C@]23CCC(C)(C)CC2C2=CCC4[C@@]5(C)CCC(OC(C)=O)C(C)(C)C5CC[C@@]4(C)[C@]2(C)CC3)ccc1OCc1cn(-c2ccc(Cl)cc2Cl)nn1 (stereo partly specified)", "SK-MEL-5 melanoma", "interval 3"],
  ["CCCN(CCC)S(=O)(=O)c1ccc(C(=O)O)cc1.CCCN(CCC)S(=O)(=O)c1ccc(C(=O)O)cc1.[Cl][Pt+2][Cl].[NH2-].[NH2-]", "SK-MEL-5 melanoma", "interval 1"],
  ["COc1ccc2[nH]c(O)c(N=Nc3nc(-c4ccccc4)cs3)c2c1", "SK-MEL-5 melanoma", "interval 3"],
  ["Cc1cc(C(NC(=O)CCCCCNc2cccc3c2C(=O)N(C2CCC(=O)CC2=O)C3=O)c2cccc(N(C)C)c2)c(O)c2ncccc12 (stereo unspecified)", "SK-MEL-5 melanoma", "interval 1"],
  ["C=CC(=O)N1CCN(c2ccc3nc4c(nc3c2C(F)(F)F)C(=O)c2ncccc2C4=O)CC1", "SK-MEL-5 melanoma", "interval 1"],
  ["O=c1c(-c2nc(-c3ccccc3)c(-c3ccccc3)[nH]2)coc2ccc(F)cc12", "SK-MEL-5 melanoma", "interval 3"],
  ["c1n[nH]cc1-c1nc2ccc3cn[nH]c3c2c2c1CCCC2", "SK-MEL-5 melanoma", "interval 3"],
  ["Cc1ccc(C2CC(c3ccc(S(=O)(=O)NCCNc4nc(N(C)C)nc(N5CCOCC5)n4)cc3)=Nc3c(N)nc(N)nc3N2)cc1 (stereo unspecified)", "SK-MEL-5 melanoma", "interval 3"],
  ["CNc1nc2ccccc2n2c(-c3ccc(O)c(O)c3)cnc12", "SK-MEL-5 melanoma", "interval 2"],
  ["COc1ccccc1NC(=O)N/N=C/c1c[nH]c2ccccc12", "SK-MEL-5 melanoma", "interval 2"],
  ["N/C(=N\\c1nc2ccccc2s1)NC(=O)Nc1ccccc1F", "SK-MEL-5 melanoma", "interval 2"],
  ["COc1ccc(-c2nnc3c(/C=C/c4ccc(Br)cc4)nc4ccccc4n23)cc1", "SK-MEL-5 melanoma", "interval 3"],
  ["O=C(c1ccc(O)cc1)C1[C@H](c2ccc(Cl)cc2)[C@@H](c2ccccc2)NC12C(=O)Nc1ccccc12 (stereo partly specified)", "SK-MEL-5 melanoma", "interval 1"],
  ["Cn1cc(-c2cc(N)n3nc(-c4c[nH]c5ccc(F)cc45)cc3n2)c2cccnc21", "SK-MEL-5 melanoma", "interval 1"],
  ["COc1ccc2c(c1)C(=O)N(C)C2C1c2c(cc3c(c2OC)OCO3)CCN1C (stereo unspecified)", "SK-MEL-5 melanoma", "interval 2"],
  ["O=C(Nc1nc2ccc([N+](=O)[O-])cc2s1)Nc1ccccc1F", "SK-MEL-5 melanoma", "interval 1"],
  ["COc1ccc2c(c1)N=c1c-2cc2c(O)[nH]c(=S)n2c1=O", "SK-MEL-5 melanoma", "interval 2"],
  ["CN(C)c1ccc(/C=C/c2n(Cc3ccc4ccccc4c3)c3ccccc3[n+]2Cc2ccc3ccccc3c2)cc1", "SK-MEL-5 melanoma", "interval 1"],
  ["COc1cc(/C=C/C(=O)c2ccc(S(=O)(=O)NCCNc3nc(N(C)C)nc(N4CCOCC4)n3)cc2)cc(OC)c1OC", "SK-MEL-5 melanoma", "interval 2"],
  ["O=C(Nc1nc2ccc([N+](=O)[O-])cc2s1)Nc1ccc(Cl)cc1Cl", "SK-MEL-5 melanoma", "interval 2"],
  ["Cc1ccc(C2CC(c3ccc(NC(=O)Nc4ccccc4)cc3)=NN2c2ccc(S(N)(=O)=O)cc2)cc1 (stereo unspecified)", "SK-MEL-5 melanoma", "interval 1"],
  ["COC(=O)c1ccc(-c2c(-c3ccccc3)c(F)c3oc(C(=O)OC)c(N)c3c2-c2ccccc2)cc1", "SK-MEL-5 melanoma", "interval 3"],
  ["CC(C)C[C@H](NC(=O)[C@@H]1CCCCCCCCCCC(=O)N[C@@H](CC(=O)N2CCC[C@@H]2C2CCCC2)C(=O)N1)B(O)O", "SK-MEL-5 melanoma", "interval 1"],
  ["COc1ccc2c(c1)C(Sc1ccc(Cl)cc1)c1c(nc(N)c(C#N)c1N)O2 (stereo unspecified)", "SK-MEL-5 melanoma", "interval 3"],
  ["COc1ccc2[nH]c(=O)c(CSc3ccccc3Nc3nccc(-c4ccc(Cl)cc4)n3)cc2c1", "SK-MEL-5 melanoma", "interval 2"],
  ["Nc1nnc(-c2cncc(Br)c2)c(-c2c[nH]c3ccc(Br)cc23)n1", "SK-MEL-5 melanoma", "interval 3"],
  ["COc1ccc(Nc2ncnc3sc4c(c23)CCN(Cc2ccccc2)C4)cc1", "SK-MEL-5 melanoma", "interval 3"],
  ["N#CCc1nnc(NC(=O)c2ccc(-n3c(=O)[nH]c4ccccc4c3=O)cc2)s1", "SK-MEL-5 melanoma", "interval 3"]
]}
